# TESTED_TARGET: OATP1B3 (Homo sapiens)
# Sequence (Q9NPD5 whole entry): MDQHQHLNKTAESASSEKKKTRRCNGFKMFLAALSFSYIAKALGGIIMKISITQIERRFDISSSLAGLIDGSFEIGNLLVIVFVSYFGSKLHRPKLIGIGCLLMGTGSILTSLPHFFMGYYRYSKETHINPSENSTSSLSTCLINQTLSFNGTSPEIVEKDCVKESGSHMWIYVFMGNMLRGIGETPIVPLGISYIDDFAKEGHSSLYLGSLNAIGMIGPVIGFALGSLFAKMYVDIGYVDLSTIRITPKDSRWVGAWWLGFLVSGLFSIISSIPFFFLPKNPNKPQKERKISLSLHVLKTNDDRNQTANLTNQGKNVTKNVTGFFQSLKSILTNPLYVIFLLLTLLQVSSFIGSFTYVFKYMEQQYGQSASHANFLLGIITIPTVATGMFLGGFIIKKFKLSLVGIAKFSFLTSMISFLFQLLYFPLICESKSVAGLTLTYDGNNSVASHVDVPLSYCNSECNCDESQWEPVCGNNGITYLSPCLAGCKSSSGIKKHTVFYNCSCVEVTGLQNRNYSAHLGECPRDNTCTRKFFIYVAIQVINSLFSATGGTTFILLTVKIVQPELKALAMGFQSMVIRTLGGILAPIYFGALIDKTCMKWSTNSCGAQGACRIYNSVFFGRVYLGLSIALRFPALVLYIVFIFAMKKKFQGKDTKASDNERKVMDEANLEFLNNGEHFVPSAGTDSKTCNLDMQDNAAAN
# ASSAY_REMARKS: Inhibition of OATP1B3 (unknown origin)-mediated sodium fluorescein expressed in CHO cells at 10 uM
# Type: ADME, cell-based
# SETUP_CONDITIONS: CHO cells expressing OATP1B3, probe sodium fluorescein
MEASUREMENT_NAME: inhibition at 10 µM (%)
Form entry: value (%) — number only.

Need inhibition at 10 µM of CC(=O)O[C@H]1C(=O)[C@@]2(C)[C@H]([C@H](OC(=O)c3ccccc3)[C@]3(O)C[C@H](OC(=O)[C@H](O)[C@@H](NC(=O)c4ccccc4)c4ccccc4)C(C)=C1C3(C)C)[C@]1(OC(C)=O)CO[C@@H]1C[C@@H]2O , thanks.
52.9
